molecular target: UniProt:O75907; assay: DGAT CHOK1 Cell Assay; conditions: CHOK1 cells transfected with DGAT1, 14C palmitic acid, 1 hour at 37° C., triglyceride by TLC
Sequence (O75907 whole entry, species assumed): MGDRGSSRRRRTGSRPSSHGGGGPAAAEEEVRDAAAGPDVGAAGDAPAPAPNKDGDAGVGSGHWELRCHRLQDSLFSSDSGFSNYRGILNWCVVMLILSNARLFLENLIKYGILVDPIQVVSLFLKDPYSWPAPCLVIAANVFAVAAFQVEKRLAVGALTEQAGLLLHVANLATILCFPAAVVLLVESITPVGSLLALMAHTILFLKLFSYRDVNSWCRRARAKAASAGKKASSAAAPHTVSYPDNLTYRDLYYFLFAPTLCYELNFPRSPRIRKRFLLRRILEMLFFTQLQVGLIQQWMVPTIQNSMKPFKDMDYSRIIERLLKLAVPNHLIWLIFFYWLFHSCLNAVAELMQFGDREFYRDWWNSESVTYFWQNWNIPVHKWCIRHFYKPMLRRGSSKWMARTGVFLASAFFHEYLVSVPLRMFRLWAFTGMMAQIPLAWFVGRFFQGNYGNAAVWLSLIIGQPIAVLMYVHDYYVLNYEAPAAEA
ASSAY_METRIC: pEC50
Give bare numbers, as −log10 of the molar value.

Below: 7 compounds and their reported pEC50.
>  <SAMPLE_SMILES>
CC(C)c1cccc(-c2cc(F)ccc2OCC(=O)N(NC(=O)c2ccccc2)C(C)C)c1

>  <SYSTEM>
UniProt:O75907

>  <QUANTITATIVE_RESULT>
6.00

$$$$
>  <SAMPLE_SMILES>
CC(C)N(NC(=O)c1ccccc1)C(=O)COc1ccc(F)cc1-c1ccccc1[N+](=O)[O-]

>  <SYSTEM>
UniProt:O75907

>  <QUANTITATIVE_RESULT>
6.64

$$$$
>  <SAMPLE_SMILES>
CC(C)N(NC(=O)c1ccccc1)C(=O)CSc1ccccc1-c1ccc(F)cc1

>  <SYSTEM>
UniProt:O75907

>  <QUANTITATIVE_RESULT>
5.31

$$$$
>  <SAMPLE_SMILES>
CC(C)Oc1ccccc1-c1cc(F)ccc1OCC(=O)N(NC(=O)c1ccccc1)C(C)C

>  <SYSTEM>
UniProt:O75907

>  <QUANTITATIVE_RESULT>
5.31

$$$$
>  <SAMPLE_SMILES>
COc1ccccc1-c1ccccc1SCC(=O)N(NC(=O)c1ccccc1)C(C)C

>  <SYSTEM>
UniProt:O75907

>  <QUANTITATIVE_RESULT>
5.17

$$$$
>  <SAMPLE_SMILES>
CCOc1ccccc1-c1cc(F)ccc1OCC(=O)N(NC(=O)c1ccccc1)C(C)C

>  <SYSTEM>
UniProt:O75907

>  <QUANTITATIVE_RESULT>
5.87

$$$$
>  <SAMPLE_SMILES>
CC(C)N(NC(=O)c1ccccc1)C(=O)CSc1ccccc1-c1ccccc1

>  <SYSTEM>
UniProt:O75907

>  <QUANTITATIVE_RESULT>
4.43

$$$$

// below: pEC50 requested for another compound
Prompt line: Consider the compound CCc1ccccc1-c1cc(F)ccc1OCC(=O)N(NC(=O)c1ccc(OCCOC)cc1)C(C)C and give its measured pEC50.
Response line: 5.74
